# System: A549/ATCC NSCLC
# Test summary: NCI-60 one-dose screen, 48 h (100 = growth as untreated, 0 = no growth, -100 = all killed)
# Stated conditions: 10 µM unless noted
About 83,000 compounds went through this panel and 20% of them were active in at least one assay; those are over-represented in the sample as a whole.
Readout label: growth (%)
A number alone suffices; assume %.

Below, 4 compounds whose answers are already recorded.
> print(dat)
                                   compound  readout.label  unit.spec   val
1  O=C(Nc1ccc(Cl)c(Cl)c1)Nc1ccc(Cl)c([N+](=O)[O-])c1         growth          %  4.45
2  COc1ccccc1N1CCN(CC(O)COc2c(Br)c(Br)c(Br)c3c2OC(C)(C)C3)CC1 (stereo not given)         growth          %  45.5
3  C=C1C(=O)O[C@H]2[C@H]1CC/C(COC(=O)c1ccc(C#N)cc1)=C\CC[C@@]1(C)O[C@@H]21         growth          %  40.8
4        O[C@@H]1CCO[C@H](c2ccc3ccccc3c2)C1         growth          %  96.7

Alright, here's another compound for you.
Query: growth; subject: C=C1C(=O)O[C@H]2[C@H]1CC/C(COC(=O)c1ccc(Cl)nc1)=C\CC[C@@]1(C)O[C@@H]21
39.7
